Values were extracted from patent US7217697B2.

TEST_TARGET: human SGLT1 (Homo sapiens)
Construct: expressed in transfected cells
Sequence (P13866 whole entry): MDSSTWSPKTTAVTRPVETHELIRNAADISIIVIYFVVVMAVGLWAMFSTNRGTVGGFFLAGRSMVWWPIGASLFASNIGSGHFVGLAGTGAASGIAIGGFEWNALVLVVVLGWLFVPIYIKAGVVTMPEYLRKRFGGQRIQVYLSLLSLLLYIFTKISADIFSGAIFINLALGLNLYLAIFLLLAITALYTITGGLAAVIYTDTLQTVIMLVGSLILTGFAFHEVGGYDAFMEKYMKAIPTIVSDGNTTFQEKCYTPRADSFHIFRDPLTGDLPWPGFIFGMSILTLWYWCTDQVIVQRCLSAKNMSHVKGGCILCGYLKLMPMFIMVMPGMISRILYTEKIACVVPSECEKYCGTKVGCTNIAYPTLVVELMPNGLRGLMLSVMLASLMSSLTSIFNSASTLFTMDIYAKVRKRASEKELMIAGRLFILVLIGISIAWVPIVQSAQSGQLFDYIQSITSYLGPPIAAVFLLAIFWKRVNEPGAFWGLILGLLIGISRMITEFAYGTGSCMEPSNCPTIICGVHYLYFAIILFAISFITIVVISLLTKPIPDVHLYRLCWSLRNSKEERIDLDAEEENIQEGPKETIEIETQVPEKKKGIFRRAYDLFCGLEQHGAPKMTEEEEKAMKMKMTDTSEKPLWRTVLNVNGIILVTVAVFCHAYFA
PROTOCOL_DETAILS: Assay for inhibitory effects on human SGLT1 activity (uptake of methyl-α-D-glucopyranoside)
Assay type: cell-based
CONDITIONS: CS1-5-11D cells (CHO-K1 stably expressing human SGLT1); uptake of 1 mM 14C-labeled α-MG, 37° C., 1 hour
pIC50: −log10 of the molar value.
QUANTITY: pIC50

A selection of reference data follows.
OCCCn1nc(O[C@@H]2O[C@H](CO)[C@@H](O)[C@H](O)[C@H]2O)c(Cc2ccccc2OCc2ccccc2)c1C(F)(F)F = 7.52
CC(C)c1[nH]nc(O[C@@H]2O[C@H](CO)[C@@H](O)[C@H](O)[C@H]2O)c1Cc1ccccc1OCc1ccccc1 = 7.74

P: OCCn1nc(O[C@@H]2O[C@H](CO)[C@@H](O)[C@H](O)[C@H]2O)c(Cc2ccccc2OCc2ccccc2)c1C(F)(F)F
Q: CC(C)c1[nH]nc(O[C@@H]2O[C@H](CO)[C@@H](O)[C@H](O)[C@H]2O)c1Cc1ccccc1OCc1cccc(Cl)c1
R: CC(C)c1[nH]nc(O[C@@H]2O[C@H](CO)[C@@H](O)[C@H](O)[C@H]2O)c1Cc1ccccc1OCc1cccc(O)c1
S: CCc1c(Cc2ccccc2OCc2ccccc2)c(O[C@@H]2O[C@H](CO)[C@@H](O)[C@H](O)[C@H]2O)nn1CCO
input: Please put the entries in order of rising pIC50. Would you mind listing the labels in the order requested?
output: S, R, P, Q
